target: T1, WWP3 WW domain expressed as GST fusion protein (human); assay: ELISA cross affinity mapping, GST-WW fusion
T1 construct: Whole WWP3 entry named; not shown: glutathione S-transferase (GST) fusion partner
T1 sequence (chain, as listed by the source): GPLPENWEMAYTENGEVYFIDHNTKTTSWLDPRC
No end group written: not given here. *: point of attachment. Biotin = O=C1N[C@H]2[C@H](CS[C@H]2CCCCC(=O)*)N1
parameter.measured: binding result

binder | reading
Biotin-SGSGPGTPPPPYTVGPGY (Tested as streptavidin-enzyme complex) [WBP-1 peptide (biotin-SGSGPGTPPPPYTVGPGY)] | no binding
Biotin-SGSGYVQPPPPPYPGPM (Tested as SA-AP complex) [WBP-2A peptide (biotin-SGSGYVQPPPPPYPGPM)] | binds
Biotin-SGSGPGTPYPPPPEFY (Tested as SA-AP complex) [WBP-2B peptide (biotin-SGSGPGTPYPPPPEFY)] | no binding
Biotin-SGSGYVQPPPAPYPGPM [WBP-2A-Pro4 (alanine substitution of the third proline of the PPPPY motif of WBP-2A)] | no binding
